Every entry's value here was drawn from patent US12180215B2.

Target: TYK2 (Homo sapiens, UniProt P29597)
Construct: purchased Invitrogen PV4790
Sequence (P29597 833-1187 limits assumed): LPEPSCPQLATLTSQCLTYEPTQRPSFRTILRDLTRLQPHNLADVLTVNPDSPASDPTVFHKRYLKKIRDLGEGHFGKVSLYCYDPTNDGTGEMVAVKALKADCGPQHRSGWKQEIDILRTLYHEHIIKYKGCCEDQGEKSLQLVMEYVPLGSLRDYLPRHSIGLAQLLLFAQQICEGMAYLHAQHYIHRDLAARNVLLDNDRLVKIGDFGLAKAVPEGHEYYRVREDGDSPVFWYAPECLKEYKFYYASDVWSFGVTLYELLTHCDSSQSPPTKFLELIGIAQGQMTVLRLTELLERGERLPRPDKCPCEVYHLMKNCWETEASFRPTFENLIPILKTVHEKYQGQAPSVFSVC
Test: TYK2 kinase ADP-Glo assay (Example 59)
Format: biochemical
Details: TYK2 (Invitrogen) 4 nM, ATP 10 μM, IRS1 0.03 mg/mL, 25° C. 60 min, read-out: IC50 (nM), TYK2 Experiment
So basically, if IC50 comes in under 0.3 nM it's satisfied, and if it's 0.3 nM or more it's not satisfied.

Past entries and their recorded results:
> print(dat)
                                   compound                               target  discrete.label
1  CCc1cc(O)c(F)cc1-c1ccc2c(-c3nc4c([nH]3)CN(C(=O)c3cnc(N5CCN(C)CC5)cn3)C4)n[nH]c2c1 [MDI-204]  TYK2 (Homo sapiens, UniProt P29597)       satisfied
2  CCc1cc(O)c(F)cc1-c1ccc2c(-c3nc4c([nH]3)CN(C(=O)C3CC(O)C3)C4)n[nH]c2c1 (stereo not drawn) [MDI-213]  TYK2 (Homo sapiens, UniProt P29597)       satisfied
3  CCc1cc(O)c(F)cc1-c1ccc2c(-c3nc4c([nH]3)CN(C3CCC(O)CC3)C4)n[nH]c2c1 (stereo not drawn) [MDI-217]  TYK2 (Homo sapiens, UniProt P29597)   not satisfied
4  CCc1cc(O)c(F)cc1-c1ccc2c(-c3nc4c([nH]3)CN(S(=O)(=O)c3ccccc3)C4)n[nH]c2c1 [MDI-206]  TYK2 (Homo sapiens, UniProt P29597)   not satisfied

Shift focus to the following entry.
[Q] Below 0.3 nM on IC50? Entry CCc1cc(O)c(F)cc1-c1ccc2c(-c3nc4c([nH]3)CN(C(=O)C3CCN(C)CC3)C4)n[nH]c2c1 [MDI-203]
[A] not satisfied
